# Tested on: H460 (NRF2 pathway mutant cell line with high AKR1C3 expression)
# test method notes: In vitro cell proliferation assay (CellTiter-Glo), H460
# Format: cell-based
# study conditions: Homo sapiens, NCI-H460, 72 h; H460 cells, 3 days, CellTiter-Glo, top concentration 10 μM; read-out: H460 Qualified absolute AC50
AC50 class ranges: I = under 80 nM, II = from 80 nM up to 400 nM, III = 400 nM and over

[
  {
    "compound": "CN1c2ccc(F)cc2C(=O)CC12CCN(C(=O)NCc1ccc(F)cc1F)CC2 [Example 5]",
    "label class": "I"
  }
]

**Q:** Category lookup for the compound CS(=O)(=O)Nc1cc(CNC(=O)N2CCC3(CC2)CC(O)c2cc(F)ccc2N3)ccc1F (racemic) [Example 164]
**A:** II

**Q:** Category lookup for the compound CCN1c2ccc(F)cc2C(=O)CC12CCN(C(=O)NCc1cc(N)c(F)cc1F)CC2 [Example 50]
**A:** II

**Q:** Category lookup for the compound CC(O)CNC(=O)c1cc(CNC(=O)N2CCC3(CC2)CC(=O)c2cc(F)ccc2N3C)ccc1F (racemic) [Example 88]
**A:** III

**Q:** Category lookup for the compound Nc1ccc(CNC(=O)N2CCC3(CC2)CC(=O)c2cc(F)ccc2N3)cc1C(F)(F)F [Example 112]
**A:** III

**Q:** Category lookup for the compound CN1c2ccc(F)cc2C(=O)CC12CCN(C(=O)NCc1ccc(F)c(NCCOP(=O)(O)O)c1)CC2 [Example 28]
**A:** I

**Q:** Category lookup for the compound O=C(NCc1ccc(F)cc1)N1CCC2(CC1)C[C@H](O)c1cc(F)ccc1N2 (single isomer, unassigned) [Example 153]
**A:** III

###

# Tested on: H460 (NRF2 pathway mutant cell line with high AKR1C3 expression)
# test method notes: In vitro cell proliferation assay (CellTiter-Glo), H460
# Type: cell-based
# study conditions: Homo sapiens, NCI-H460, 72 h; H460 cells, 3 days, CellTiter-Glo, top concentration 10 μM; read-out: H460 Qualified absolute AC50
# Source text: Cellular Proliferation Assay to Assess Compounds Activity in H460 (NRF2 Pathway Mutant Cell Line with High AKR1C3 Expression) and Hara (NRF2 Pathway Wild Type Cell Line with Low AKR1C3 Expression). The cell lines A549 and H460 are NRF2 pathway mutant and specifically contain genetic alterations in KEAP1 (A549: G333C, H460: D236H) (Singh A. et al., 2006 PLoS Medicine 3(10) e420). […]
Listed next: entries and their corresponding log10 of AC50.
Scale type: logarithmic (base 10). Underlying AC50 unit: nM.

[
  {
    "molecule": "O=C1CC2(CCN(C(=O)NCc3cn[nH]c3)CC2)Nc2ccc(F)cc21",
    "log10 of AC50": 1.91
  },
  {
    "molecule": "O=C1CC2(CCN(C(=O)NCc3ccc(F)cc3C(F)(F)F)CC2)Nc2ccc(F)cc21",
    "log10 of AC50": 2.35
  }
]

log10 of AC50 for H460 (NRF2 pathway mutant cell line with high AKR1C3 expression) with input `O=C(NC/C=C/CO)c1cc(CNC(=O)N2CCC3(CC2)CC(=O)c2cc(F)ccc2N3)ccc1F` equals 3.05

log10 of AC50 for H460 (NRF2 pathway mutant cell line with high AKR1C3 expression) with input `NS(=O)(=O)c1cccc(CNC(=O)N2CCC3(CC2)CC(=O)c2cc(F)ccc2N3)c1` equals 2.48

log10 of AC50 for H460 (NRF2 pathway mutant cell line with high AKR1C3 expression) with input `Nc1c(F)cc(CNC(=O)N2CCC3(CC2)CC(=O)c2cc(F)ccc2N3)cc1F` equals 2.35

log10 of AC50 for H460 (NRF2 pathway mutant cell line with high AKR1C3 expression) with input `O=C1CC2(CCN(C(=O)NCc3ccno3)CC2)Nc2ccc(F)cc21` equals 3.06

log10 of AC50 for H460 (NRF2 pathway mutant cell line with high AKR1C3 expression) with input `Cc1ccc(CNC(=O)N2CCC3(CC2)CC(=O)c2cc(F)ccc2N3)o1` equals 2.16

log10 of AC50 for H460 (NRF2 pathway mutant cell line with high AKR1C3 expression) with input `Nc1cc(F)c(CNC(=O)N2CCC3(CC2)CC(=O)c2cc(F)ccc2N3)cc1F` equals 2.05

log10 of AC50 for H460 (NRF2 pathway mutant cell line with high AKR1C3 expression) with input `CCNc1cc(F)ccc1CNC(=O)N1CCC2(CC1)CC(=O)c1cc(F)ccc1N2C` equals 2.14

log10 of AC50 for H460 (NRF2 pathway mutant cell line with high AKR1C3 expression) with input `O=C1CC2(CCN(C(=O)NCc3ccccc3)CC2)Nc2ccc(F)cc21` equals 1.88

log10 of AC50 for H460 (NRF2 pathway mutant cell line with high AKR1C3 expression) with input `O=C1CC2(CCN(C(=O)NCc3cocn3)CC2)Nc2ccc(F)cc21` equals 3.32

log10 of AC50 for H460 (NRF2 pathway mutant cell line with high AKR1C3 expression) with input `CN1c2ccc(F)cc2C(=O)CC12CCN(C(=O)NCc1ccc(N)cc1)CC2` equals 2.49

log10 of AC50 for H460 (NRF2 pathway mutant cell line with high AKR1C3 expression) with input CN1c2ccc(F)cc2C(O)CC12CCN(C(=O)NCc1ccc(F)c([C@@H](N)C(F)(F)F)c1)CC2 (mixture of isomers) equals 2.54

log10 of AC50 for H460 (NRF2 pathway mutant cell line with high AKR1C3 expression) with input `Cc1cc(CNC(=O)N2CCC3(CC2)CC(=O)c2cc(F)ccc2N3)ccc1N` equals 3.01

log10 of AC50 for H460 (NRF2 pathway mutant cell line with high AKR1C3 expression) with input CN1c2ccc(F)cc2[C@@H](O)CC12CCN(C(=O)NCc1ccc(F)cc1)CC2 (single isomer, unassigned) [Example 151b] equals 3.53

log10 of AC50 for H460 (NRF2 pathway mutant cell line with high AKR1C3 expression) with input `CN1c2ccc(F)cc2C(=O)CC12CCN(C(=O)NCc1ccc(F)c(NCCN3CCCC3=O)c1)CC2` equals 2.65

log10 of AC50 for H460 (NRF2 pathway mutant cell line with high AKR1C3 expression) with input `CCCNC(=O)c1cc(CNC(=O)N2CCC3(CC2)CC(=O)c2cc(F)ccc2N3)ccc1F` equals 3.42

###

# Tested on: H460 (NRF2 pathway mutant cell line with high AKR1C3 expression)
# test method notes: In vitro cell proliferation assay (CellTiter-Glo), H460
# Type: cell-based
# study conditions: Homo sapiens, NCI-H460, 72 h; H460 cells, 3 days, CellTiter-Glo, top concentration 10 μM; read-out: H460 Qualified absolute AC50
endpoint label: AC50 (nM)
Report only the number, with the unit nM understood.

Below, 3 compounds whose answers are already recorded.
[
  {
    "compound": "NC(=O)c1cc(CNC(=O)N2CCC3(CC2)CC(O)c2cc(F)ccc2N3)ccc1F (racemic)",
    "unit annotation": "nM",
    "AC50": 0.4
  },
  {
    "compound": "Nc1ccc(CNC(=O)N2CCC3(CC2)CC(=O)c2cc(F)ccc2N3)cc1F",
    "unit annotation": "nM",
    "AC50": 166
  },
  {
    "compound": "CNC(=O)c1cc(CNC(=O)N2CCC3(CC2)CC(=O)c2cc(F)ccc2N3)ccc1F",
    "unit annotation": "nM",
    "AC50": 222
  }
]

Sure, the documented AC50 for `Cc1ccc(CNC(=O)N2CCC3(CC2)CC(=O)c2cc(F)ccc2N3C)o1` is 10

Sure, the documented AC50 for `Nc1ccc(CNC(=O)N2CCC3(CC2)CC(=O)c2cc(F)ccc2N3)cc1` is 436

Sure, the documented AC50 for Nc1ccc(CNC(=O)N2CCC3(CC2)C[C@@H](O)c2cc(F)ccc2N3)cc1F (single isomer, unassigned) [Example 170a] is 11

Sure, the documented AC50 for `NC(=O)c1cccc(CNC(=O)N2CCC3(CC2)CC(=O)c2cc(F)ccc2N3)c1` is 233

Sure, the documented AC50 for `CN1c2ccc(F)cc2C(=O)CC12CCN(C(=O)NCc1ccc(F)c(C(C)(C)O)c1)CC2` is 2300

Sure, the documented AC50 for `Nc1ccc(CNC(=O)N2CCC3(CC2)CC(=O)c2cc(F)ccc2N3)cn1` is 1990

Sure, the documented AC50 for `CN1c2ccc(F)cc2C(=O)CC12CCN(C(=O)NCc1ccc(F)cc1NCCO)CC2` is 379

Sure, the documented AC50 for `COC(=O)c1cc(CNC(=O)N2CCC3(CC2)CC(=O)c2cc(F)ccc2N3)ccc1F` is 205

Sure, the documented AC50 for `O=C1CC2(CCN(C(=O)NCc3ccc(OC(F)F)c(F)c3)CC2)Nc2c(F)cc(F)cc21` is 646

Sure, the documented AC50 for `O=C1CC2(CCN(C(=O)NCc3ccc(F)cc3Cl)CC2)Nc2ccc(F)cc21` is 226

Sure, the documented AC50 for `CCN1c2ccc(F)cc2C(=O)CC12CCN(C(=O)NCc1ccc(F)c(C(N)=O)c1)CC2` is 25

Sure, the documented AC50 for `CC(C)S(=O)(=O)Nc1cc(CNC(=O)N2CCC3(CC2)CC(=O)c2cc(F)ccc2N3)ccc1F` is 6900

Sure, the documented AC50 for `NC(=O)c1cc(CNC(=O)N2CCC3(CC2)CC(=O)c2cc(F)cc(F)c2N3)ccc1F` is 23

Sure, the documented AC50 for `O=C1CC2(CCN(C(=O)NCc3cc[nH]n3)CC2)Nc2ccc(F)cc21` is 106

Sure, the documented AC50 for `O=C1CC2(CCN(C(=O)NCc3ccc(Cl)o3)CC2)Nc2ccc(F)cc21` is 37
